// data source = PubChem BioAssay (NCI)

- Test system: IGROV1 ovarian
- experimental protocol: NCI tumour cell line growth inhibition, 48 h
# maps each entry to its TGI

| compound | TGI |
| --- | --- |
| CCN(CC)CCNc1ccc2ncn3c4ccc(OC)cc4c(=O)c1c23 | 28.1 µM |
| COC(=O)c1c(O)ccc(O)c1C(C(C)=O)C(C)=O | > 100 µM |
| COc1cccc2c1C(=O)c1c(O)c3c(c(O)c1C2=O)C[C@@](O)(/C(CO)=N/NC(=O)CCCCCN1C(=O)C=CC1=O)C[C@@H]3O[C@H]1C[C@H](N)[C@H](O)[C@H](C)O1 | > 100 µM |
| Nc1ccccc1C#C/C=C\C#Cc1ccccc1C#CCO | > 50 µM |
| O=S1(=O)c2ccccc2N(c2ccccc2)c2nnnn21 | > 100 µM |
| O=C(OCc1ccccc1)C(Cc1ccc(OCc2ccccc2)cn1)NC(=O)C(F)(F)F (configuration not stated) | > 100 µM |
| CC(O)CNC(=O)Nc1c(C(F)(F)F)cc(-c2ccccc2)[nH]c1=O (configuration not stated) | > 100 µM |
| Cc1sc(C(=O)c2cncnc2N[C@@H]2C[C@H](COS(N)(=O)=O)[C@@H](O)C2)cc1[C@@H]1NCCc2ccc(Cl)cc21 | 25.7 µM |
| O=C(/C=C/c1ccc(Cl)c(Cl)c1)c1ccccc1Cl | 24.2 µM |
| COCn1cc(C2=C(C)C(=O)C(C)=C(C)C2=O)cn1 | > 100 µM |
| COc1ccc(OC)c(Nc2nc3nonc3nc2Nc2cccc(Br)c2)c1 | 42.5 µM |
| CC1(C)c2ccccc2N2C(c3ccccc3)=NOC21C (configuration not stated) | > 100 µM |
